Each entry below carries its reported Therapeutical index.
System: maximal electroshock
TEST_METHOD_NOTES: Inhibition of maximal electroshock on mice
CONDITIONS_USED: Table VI; maximal electroshock; LD50/ED50

MOLECULE | TGT | Therapeutical index
CN1C(=O)OC(C)(C)C1=O [Trimethadion, reference compound] | maximal electroshock | 5.1
CN(C)CCO/N=C1C=C(/C=C/c2ccccc2)CC(C)(C)C/1 | maximal electroshock | 11.4
CN(C)CCCO/N=C1C=C(/C=C/c2ccccc2)CC(C)(C)C/1 | maximal electroshock | 11.8
CC(CO/N=C1C=C(/C=C/c2ccccc2)CC(C)(C)C/1)CN(C)C (racemic) | maximal electroshock | 28.1

###

Test system: acetic acid writhing
TEST_METHOD_NOTES: Acetic acid "writhing test" on mice (Newbould)
Format: in vivo, white mice
CONDITIONS_USED: Table VII; acetic acid writhing; LD50/ED50
Decision: Therapeutical index beneath 10 gives yes (1); Therapeutical index meeting or exceeding 10 gives no (0).

COMPOUND | TGT | CLASS_ASSIGNMENT
CN(C)CCCO/N=C1C=C(/C=C/c2ccc(Cl)cc2)CC(C)(C)C/1 | acetic acid writhing | no (0)
CN(C)CCCO/N=C1C=C(/C=C/c2ccccc2)CC(C)(C)C/1 | acetic acid writhing | yes (1)
COc1cccc(/C=C/C2=CC(=N/OCCN3CCOCC3)/CC(C)(C)C2)c1 | acetic acid writhing | no (0)
CC1(C)CC(/C=C/c2cccc(Cl)c2)=CC(=N/OCCCN2CCOCC2)/C1 | acetic acid writhing | no (0)
CC(C)N(CCO/N=C1C=C(/C=C/c2ccccc2)CC(C)(C)C/1)C(C)C | acetic acid writhing | no (0)
CN(C)CCCO/N=C1C=C(/C=C/c2cccc(Cl)c2)CC(C)(C)C/1 | acetic acid writhing | no (0)
COc1ccc(/C=C/C2=CC(=N/OCCCN(C)C)/CC(C)(C)C2)cc1OC | acetic acid writhing | yes (1)
COc1ccc(/C=C/C2=CC(=N/OCC(C)CN(C)C)/CC(C)(C)C2)cc1 (racemic) | acetic acid writhing | no (0)

###

Tested on: maximal electroshock
TEST_METHOD_NOTES: Inhibition of maximal electroshock on mice
CONDITIONS_USED: Mus musculus, po
REPORTED_ENDPOINT: ED50 (mg/kg)

MOLECULE | TGT | REPORTED_ENDPOINT | READOUT_UNITS | READING
CN(C)CCO/N=C1C=C(/C=C/c2ccccc2)CC(C)(C)C/1 [Example 3] | maximal electroshock | ED50 | mg/kg | 88
CN(C)CCCO/N=C1C=C(/C=C/c2ccccc2)CC(C)(C)C/1 [Example 1] | maximal electroshock | ED50 | mg/kg | 110
CC(CO/N=C1C=C(/C=C/c2ccccc2)CC(C)(C)C/1)CN(C)C (racemic) [Example 13] | maximal electroshock | ED50 | mg/kg | 64
CN1C(=O)OC(C)(C)C1=O [Trimethadion, reference compound] | maximal electroshock | ED50 | mg/kg | 400

###

Tested on: motility
TEST_METHOD_NOTES: animal or person
Assay type: in vivo
CONDITIONS_USED: Table II; motility inhibition; LD50/ED50

COMPOUND | Therapeutical index
CN(C)CCCO/N=C1C=C(/C=C/c2ccccc2)CC(C)(C)C/1 | 22.0
CC1(C)CC(/C=C/c2ccccc2Cl)=CC(=N/OCCN2CCCCC2)/C1 | > 5.0
COc1ccc(/C=C/C2=CC(=N/OCC(C)CN(C)C)/CC(C)(C)C2)cc1 (racemic) | 6.5
COc1cccc(/C=C/C2=CC(=N/OCCN3CCOCC3)/CC(C)(C)C2)c1 | > 10.0

###

System: nicotine spasm and lethality
TEST_METHOD_NOTES: Inhibition of nicotine spasm and lethality on mice (Stone)
Assay type: in vivo
CONDITIONS_USED: Table VIII; nicotine spasm and lethality; LD50/ED50
Decision: Therapeutical index beneath 30 gives Y; Therapeutical index meeting or exceeding 30 gives N.

MOLECULE | CLASS_ASSIGNMENT
CN(C)CCO/N=C1C=C(/C=C/c2ccc(Cl)cc2)CC(C)(C)C/1 | Y
CN1CCN(CCCO/N=C2C=C(/C=C/c3ccccc3)CC(C)(C)C/2)CC1 | Y
CN(C)CCCO/N=C1C=C(/C=C/c2ccccc2)CC(C)(C)C/1 | N
CC1(C)CC(/C=C/c2ccccc2)=CC(=N/OCCN2CCCCC2)/C1 | Y
CC1(C)CC(/C=C/c2ccccc2)=CC(=N/OCCN2CCOCC2)/C1 | N
CN(C)CCCO/N=C1C=C(/C=C/c2c(Cl)cccc2Cl)CC(C)(C)C/1 | Y
CC(CO/N=C1C=C(/C=C/c2ccc(Cl)cc2)CC(C)(C)C/1)CN(C)C (racemic) | Y

###

System: yohimbin toxicity
TEST_METHOD_NOTES: animal or person
CONDITIONS_USED: Table IV; yohimbin toxicity; LD50/ED50
Each entry below carries its reported Therapeutical index.

MOLECULE | TGT | Therapeutical index
COc1ccc(/C=C/C2=CC(=N/OCCCN(C)C)/CC(C)(C)C2)cc1OC [Example 10] | yohimbin toxicity | 25
COc1ccc(/C=C/C2=CC(=N/OCCCN(C)C)/CC(C)(C)C2)cc1 [Example 11] | yohimbin toxicity | 50
CN(C)CCC=C1c2ccccc2CCc2ccccc21 [Amitriptylin, reference compound] | yohimbin toxicity | 18
CN(C)CCCO/N=C1C=C(/C=C/c2c(Cl)cccc2Cl)CC(C)(C)C/1 [Example 7] | yohimbin toxicity | 33.3
CN(C)CCCO/N=C1C=C(/C=C/c2ccccc2Cl)CC(C)(C)C/1 [Example 9] | yohimbin toxicity | 40
CN(C)CCCO/N=C1C=C(/C=C/c2cccc(Cl)c2)CC(C)(C)C/1 [Example 8] | yohimbin toxicity | 57.1

###

Test system: pentetrazole spasm
TEST_METHOD_NOTES: Inhibition of pentetrazol spasm on mice
CONDITIONS_USED: Table V; pentetrazole spasm; LD50/ED50
Each entry below carries its reported Therapeutical index.
REPORTED_ENDPOINT: Therapeutical index

COMPOUND | READING
CN(C)CCO/N=C1C=C(/C=C/c2ccc(Cl)cc2)CC(C)(C)C/1 | 16.6
CN(C)CCCO/N=C1C=C(/C=C/c2ccccc2Cl)CC(C)(C)C/1 | 12.5
CN(C)CCCO/N=C1C=C(/C=C/c2ccccc2)CC(C)(C)C/1 | 23.2
CC1(C)CC(/C=C/c2ccccc2)=CC(=N/OCCN2CCCCC2)/C1 | 10.0
CN(C)CCO/N=C1C=C(/C=C/c2ccccc2)CC(C)(C)C/1 | 14.7
CN(C)CCCO/N=C1C=C(/C=C/c2c(Cl)cccc2Cl)CC(C)(C)C/1 | 25.0
CCN(CC)CCO/N=C1C=C(/C=C/c2ccc(OC)cc2)CC(C)(C)C/1 | 17.2
CN1CCN(CCCO/N=C2C=C(/C=C/c3ccccc3)CC(C)(C)C/2)CC1 | 14.3
CC1(C)CC(/C=C/c2ccc(Cl)cc2)=CC(=N/OCCCN2CCOCC2)/C1 | > 9.1
CN(C)CCCO/N=C1C=C(/C=C/c2cccc(Cl)c2)CC(C)(C)C/1 | 34.5
CC1(C)CC(/C=C/c2ccccc2)=CC(=N/OCCN2CCOCC2)/C1 | 10.8
COc1ccccc1/C=C/C1=CC(=N/OCCN2CCCCC2)/CC(C)(C)C1 | > 15.9
CC(C)N(CCO/N=C1C=C(/C=C/c2ccc(Cl)cc2)CC(C)(C)C/1)C(C)C | 28.5
COc1ccc(/C=C/C2=CC(=N/OCC(C)CN(C)C)/CC(C)(C)C2)cc1 (racemic) | 83.9
CN(C)CCCO/N=C1C=C(/C=C/c2ccc(Cl)cc2)CC(C)(C)C/1 | 16.0
CN1CCN(CCCO/N=C2C=C(/C=C/c3ccc(Cl)cc3)CC(C)(C)C/2)CC1 | 11.1
CC1(C)CC(/C=C/c2cccc(Cl)c2)=CC(=N/OCCCN2CCOCC2)/C1 | > 11.0
CC(C)N(CCO/N=C1C=C(/C=C/c2ccccc2)CC(C)(C)C/1)C(C)C | 43.5
CC(CO/N=C1C=C(/C=C/c2ccc(Cl)cc2)CC(C)(C)C/1)CN(C)C (racemic) | 10.5
COc1ccc(/C=C/C2=CC(=N/OCCCN(C)C)/CC(C)(C)C2)cc1 | 25.6

###

TEST_METHOD_NOTES: in vivo
CONDITIONS_USED: mouse, in vivo, po
Each entry below carries its reported LD50 at 168 h.

MOLECULE | RELATION_OPERATOR | LD50 at 168 h [mg/kg]
CC1(C)CC(/C=C/c2ccccc2Cl)=CC(=N/OCCN2CCCCC2)/C1 | > | 1000
CC(C)N(CCO/N=C1C=C(/C=C/c2ccc(Cl)cc2)CC(C)(C)C/1)C(C)C | = | 2000
CC1(C)CC(/C=C/c2cccc(Cl)c2)=CC(=N/OCCCN2CCOCC2)/C1 | > | 2000
CN1CCN(CCCO/N=C2C=C(/C=C/c3ccc(Cl)cc3)CC(C)(C)C/2)CC1 | = | 2000
CC(CO/N=C1C=C(/C=C/c2ccc(Cl)cc2)CC(C)(C)C/1)CN(C)C (racemic) | = | 2000
COc1cccc(/C=C/C2=CC(=N/OCCN3CCOCC3)/CC(C)(C)C2)c1 | > | 2000
COc1ccc(/C=C/C2=CC(=N/OCCCN(C)C)/CC(C)(C)C2)cc1OC | = | 1000
CC1(C)CC(/C=C/c2ccccc2)=CC(=N/OCCN2CCCCC2)/C1 | = | 1850
